Where these numbers come from: paper PMC12444810

assay: PAMPA passive membrane permeability; format: in vitro ADME
Non-standard residues stand in square brackets, D forms with d. Residues, ends and D or L forms follow the SMILES beside them. *: point of attachment. Phe(4-F) = N[C@@H](Cc1ccc(F)cc1)C(=O)O; Cbz = O=C(OCc1ccccc1)*
Here the recorded Papp at 13 h, 10 µM is given for each entry.
Provide the reading as a plain figure in ×10⁻⁶ cm/s.

[[record]]
compound = "NC(=O)CNC(=O)[C@H](Cc1ccc(F)cc1)NC(=O)[C@@H](Cc1ccccc1)NC(=O)OCc1ccccc1 [FIP‐F2pF‐NH2] (Cbz-[dF]-[Phe(4-F)]-Gly-NH2)"
measurement_units = "×10⁻⁶ cm/s"
quantitative_readout = 1.4


Papp at 13 h, 10 µM reading for NC(=O)CNC(=O)[C@H](Cc1ccccc1)NC(=O)[C@@H](Cc1ccccc1)NC(=O)OCc1ccccc1 [FIP‐NH2] (Cbz-[dF]-Phe-Gly-NH2) : 1.2
